# Tested on: HT
# Assay Procedure: Cytotoxicity against human HT cells harboring MYD88 assessed as reduction in cell viability incubated for 72 hrs by CCK-8 assay
# Format: functional, cell-based
pIC50: −log10 of the molar value.
Reported pIC50 values follow for various compounds
Quantity Measured: pIC50

INSERT INTO measurements (smiles_code, measured_target, data_value) VALUES
  ('Cn1cc(NC(=O)c2cnc3ccc(N4CCC[C@@H](N)C4)nn23)c(C(F)F)n1', 'HT', 4.38),
  ('Cn1cc(NC(=O)c2cnc3ccc(N[C@@H]4CCCNC4)nn23)c(C(F)F)n1', 'HT', 4.40),
  ('Cn1cc(NC(=O)c2cnc3ccc(NCCN)nn23)c(C(F)F)n1', 'HT', '< 4.30'),
  ('Cn1cc(NC(=O)c2cnc3ccc(N[C@H]4CCCNC4)nn23)c(C(F)F)n1', 'HT', '< 4.30'),
  ('Cn1cc(NC(=O)c2cnc3ccc(N[C@@H]4CCCNC4)nn23)c(C#N)n1', 'HT', '< 4.30'),
  ('CCn1cc(NC(=O)c2cnc3ccc(N[C@@H]4CCCNC4)nn23)c(C(F)(F)F)n1', 'HT', '< 4.30'),
  ('Cn1cc(NC(=O)c2cnc3ccc(N[C@@H]4CCNC4)nn23)c(C(F)F)n1', 'HT', '< 4.30'),
  ('Cn1cc(NC(=O)c2cnc3ccc(N[C@@H]4CCCNC4)nn23)c(C(F)(F)F)n1', 'HT', '< 4.30'),
  ('Cn1cc(NC(=O)c2ncn3ccc(N4CCC[C@@H](N)C4)nc23)c(C(F)F)n1', 'HT', '< 4.30'),
  ('Cn1cc(NC(=O)c2cnc3ccc(N[C@@H]4CCCCNC4)nn23)c(C(F)F)n1', 'HT', 4.44),
  ('O=C(Nc1cn(C2CCOCC2)nc1C(F)(F)F)c1cnc2ccc(N[C@@H]3CCCNC3)nn12', 'HT', '< 4.30'),
  ('Cn1cc(NC(=O)c2cnn3ccc(N4CCC[C@@H](N)C4)nc23)c(C(F)F)n1', 'HT', 4.53);

###

# Measured Target: Interleukin-1 receptor-associated kinase 4 (Homo sapiens, UniProt Q9NWZ3)
# Sequence (Q9NWZ3 whole entry): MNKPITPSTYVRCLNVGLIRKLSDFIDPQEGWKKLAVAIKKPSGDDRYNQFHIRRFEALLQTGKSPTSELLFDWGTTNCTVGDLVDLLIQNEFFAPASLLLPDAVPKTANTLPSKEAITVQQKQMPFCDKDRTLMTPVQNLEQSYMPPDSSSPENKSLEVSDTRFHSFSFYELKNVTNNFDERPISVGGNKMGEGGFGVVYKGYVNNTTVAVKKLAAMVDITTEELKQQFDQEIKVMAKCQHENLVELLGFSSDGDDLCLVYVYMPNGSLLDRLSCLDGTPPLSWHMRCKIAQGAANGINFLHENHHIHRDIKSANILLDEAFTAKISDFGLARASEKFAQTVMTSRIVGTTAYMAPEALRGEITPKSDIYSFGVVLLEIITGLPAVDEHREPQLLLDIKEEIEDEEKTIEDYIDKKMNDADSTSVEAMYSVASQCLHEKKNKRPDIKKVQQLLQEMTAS
# Assay Procedure: Inhibition of recombinant human His-tagged full length IRAK4 expressed in baculovirus expression system using Ser/Thr07 peptide as substrate incubated for 1 hr by Z'lyte assay
pIC50: −log10 of the molar value.
Quick reference: pIC50 of the listed items.
Quantity Measured: pIC50

INSERT INTO measurements (smiles_code, value_comparator, data_value) VALUES
  ('Cn1cc(NC(=O)c2cnc3ccc(N[C@@H]4CCCCNC4)nn23)c(C(F)F)n1', '=', 8.05),
  ('O=C(Nc1cn(C2CCOCC2)nc1C(F)(F)F)c1cnc2ccc(N[C@@H]3CCCNC3)nn12', '=', 7.30),
  ('Cc1nn2ccc(N[C@@H]3CCCNC3)nc2c1C(=O)Nc1cn(C)nc1C(F)F', '<', 6.00),
  ('Cn1cc(NC(=O)c2cnc3ccc(N4CCC[C@@H](N)C4)nn23)c(C(F)F)n1', '=', 8.06),
  ('Cc1nn(C)cc1NC(=O)c1cnc2ccc(N[C@@H]3CCCNC3)nn12', '<', 6.00),
  ('Cn1cc(NC(=O)c2cnc3ccc(N[C@@H]4CCCNC4)nn23)c(C#N)n1', '=', 7.39),
  ('Cn1cc(NC(=O)c2cnc3ccc(N4CCC(N)CC4)nn23)c(C(F)F)n1', '=', 7.10),
  ('Cn1cc(NC(=O)c2cnc3ccc(N[C@@H]4CCCNC4)nn23)c(C(F)F)n1', '=', 8.89),
  ('CCn1cc(NC(=O)c2cnc3ccc(N[C@@H]4CCCNC4)nn23)c(C(F)(F)F)n1', '=', 7.49),
  ('Cn1cc(NC(=O)c2cnc3ccc(N4CCNCC4)nn23)c(C(F)F)n1', '=', 7.18),
  ('Cn1cc(NC(=O)c2cnc3ccc(N[C@H]4CCCNC4)nn23)c(C(F)F)n1', '=', 7.44),
  ('Cc1nc2ccc(N[C@@H]3CCCNC3)nn2c1C(=O)Nc1cn(C)nc1C(F)F', '<', 6.00),
  ('CN(c1ccc2ncc(C(=O)Nc3cn(C)nc3C(F)F)n2n1)[C@@H]1CCCNC1', '<', 6.00),
  ('CC(C)n1cc(NC(=O)c2cnc3ccc(N[C@@H]4CCCNC4)nn23)c(C(F)(F)F)n1', '=', 7.11),
  ('Cn1cc(NC(=O)c2cnc3ccc(N4CC[C@@H](N)C4)nn23)c(C(F)F)n1', '<', 6.00),
  ('Cn1cc(NC(=O)c2cnc3ccc(N[C@@H]4CCCNC4)nn23)c(C(N)=O)n1', '=', 7.90),
  ('O=C(Nc1cn(C2CCNCC2)nc1C(F)(F)F)c1cnc2ccc(N[C@@H]3CCCNC3)nn12', '=', 7.28);
